# Test system: Wolbachia pipientis
# test: Anti-Wolbachia Cell-Based Screen
# Assay type: functional
# Design: scale not given: in the data most compounds retested in dose-response had high values
# condition.set: 5 µM
In all, about 48,000 compounds went through this assay and about 13,000 (27%) showed an effect of 50% or more. The list shows a part of the results.
measure.name: Percent Effect (%)
Answer format: numeric, % implied, no suffix.

Recorded Percent Effect (compound Cc1noc(C)c1C(C)NC(=O)N1CCN(c2cccs2)CC1 (centres undefined) ): 5.123

Recorded Percent Effect (compound Cc1ccsc1C(=O)N1CCn2cnc(COCC3CC3)c2C1 ): 0.0867

Recorded Percent Effect (compound Cc1nc(CN2C[C@@H]3CN(C(=O)[C@H]4CCCO4)C[C@@H]3C2=O)cs1.O=C(O)C(F)(F)F ): -7.059

Recorded Percent Effect (compound CC(=O)N(C)Cc1ncn2c1CN(C(=O)CC1CC1)CCC2 ): 104.9

Recorded Percent Effect (compound Cc1noc(C)c1C(C)C(=O)N1CCCN(C)c2ccc(Cl)cc21 (centres undefined) ): 111.8

Next:
Recorded Percent Effect (compound Cc1noc(C)c1CN(C)C(=O)CCOc1ccc(Cl)cc1 ): 13.27

Recorded Percent Effect (compound CC(=O)N(C)Cc1ncn2c1CN(C(=O)C1CCCO1)CCC2 (centres undefined) ): 106.4

Recorded Percent Effect (compound CN1CCCN(S(=O)(=O)c2cn(C)cn2)c2cc(Cl)ccc21 ): -2.244

Recorded Percent Effect (compound CCC(CNC(=O)Cc1c(C)noc1C)N1CCCC1 (centres undefined) ): 6.109

---

Entries and their measured Percent Effect follow.
# Test system: Wolbachia pipientis
# test: Anti-Wolbachia Cell-Based Screen
# Assay type: functional
# Parameters: scale not given: in the data most compounds retested in dose-response had high values
# condition.set: 5 µM
In all, about 48,000 compounds went through this assay and about 13,000 (27%) showed an effect of 50% or more. The list shows a part of the results.
Answer format: numeric, % implied, no suffix.

Some compounds with recorded Percent Effect:
Recorded Percent Effect (compound OC1CCN(C2CCN(Cc3cnc(-c4cccs4)nc3)CC2)CC1 ): 3.199

Recorded Percent Effect (compound Cc1nn(C)c(C)c1C1CCCN1C(=O)c1cc[nH]n1 (stereo not drawn) ): -0.5637

Recorded Percent Effect (compound CN(C)CCC1CCCCN1Cc1cnn(C)c1C1CC1 (stereo not drawn) ): -0.7786

Recorded Percent Effect (compound CCc1nc(CN2CCCN(C(=O)C3CCOCC3)CC2)cs1 ): -0.509

Recorded Percent Effect (compound O=C(Nc1ccc(-c2csnn2)cc1)N1CCCC1 ): -14.17

Next:
Recorded Percent Effect (compound Cc1nc2c(c(=O)n1C)CN(C(=O)C1CCCN(CC(N)=O)C1)C2 (stereo not drawn) ): -6.994

Recorded Percent Effect (compound CC(C(=O)NCCOc1ccc2c(c1)OCO2)n1cncn1 (stereo not drawn) ): 5.572

Recorded Percent Effect (compound N#Cc1ccc(SCCC(=O)N(Cc2cccnc2)C2CC2)cc1 ): -7.889

---

# Tested on: Wolbachia pipientis
# test: Anti-Wolbachia Cell-Based Screen
# Assay type: functional
# Parameters: scale not given: in the data most compounds retested in dose-response had high values
# condition.set: 5 µM
The whole screen tested about 48,000 compounds, of which about 13,000 (27%) showed an effect of 50% or more. The list shows a part of the results.
measure.name: Percent Effect (%)
Answer format: numeric, % implied, no suffix.

Some compounds with recorded Percent Effect:
Recorded Percent Effect (compound Fc1cccc(CN2CCN(Cc3cscn3)CC2)c1 ): -6.647

Recorded Percent Effect (compound Cn1cc(CN2CCCN(C(=O)c3ccc4c(c3)COC4)CC2)cn1 ): -5.776

Recorded Percent Effect (compound O=C(c1ccc(O)cn1)N1CCOC(c2ccc(Cl)c(Cl)c2)C1 (stereo unspecified) ): -8.844

Recorded Percent Effect (compound O=C(c1n[nH]cc1Cl)N1CCCC(n2nnc3cc(F)ccc32)C1 (stereo unspecified) ): 121.3

Recorded Percent Effect (compound COc1c(CNCc2cccc(Cn3ccnc3)c2)c(C)nn1C ): -8.562

Alright, here's another compound for you.
Recorded Percent Effect (compound Cc1cc(NC(=O)CCCn2ccnc2C)nc(C(C)C)n1 ): -7.681

---

Entries and their measured Percent Effect follow.
# Tested on: Wolbachia pipientis
# test: Anti-Wolbachia Cell-Based Screen
# Format: functional
# Parameters: scale not given: in the data most compounds retested in dose-response had high values
# condition.set: 5 µM
Hit rate of the full screen: of about 48,000 compounds, about 13,000 (27%) showed an effect of 50% or more. Some of the results follow.
Record the result as number plus unit.

Recorded Percent Effect (molecule CSc1ccsc1C(=O)NC(C)c1ccc2c(c1)CCC(=O)N2 (centres undefined) ): -17.83%

Recorded Percent Effect (molecule CC(NC(=O)NCc1cc[nH]n1)c1ccc2c(c1)CCC(=O)N2 (centres undefined) ): -0.03999%

Recorded Percent Effect (molecule Cc1ccsc1CNC(=O)NC(C)c1ccc2c(c1)CCC(=O)N2 (centres undefined) ): 96.96%

---

# System: Wolbachia pipientis
# test: Anti-Wolbachia Cell-Based Screen
# Type: functional
# Parameters: scale not given: in the data most compounds retested in dose-response had high values
# condition.set: 5 µM
Out of some 48,000 compounds screened, about 13,000 (27%) showed an effect of 50% or more. Some of the results follow.
Param threshold (-10%) applies to Percent Effect; output true when value >= threshold, false when value < threshold.

Field: example entries. Status: answers known.
API: above_or_equal(metric=Percent Effect, cutoff=-10%) for item Cc1noc(C)c1CNS(=O)(=O)N(C)Cc1ccc(Cl)cc1
false

API: above_or_equal(metric=Percent Effect, cutoff=-10%) for item CCn1ccnc1CN1CCN(c2nccc(OC)n2)CC1C (stereo not given)
false

Next:
API: above_or_equal(metric=Percent Effect, cutoff=-10%) for item CN1CCCC2(CCN(c3cccc(C(F)(F)F)n3)C2)C1=O (stereo not given)
false

---

Entries and their measured Percent Effect follow.
# System: Wolbachia pipientis
# test: Anti-Wolbachia Cell-Based Screen
# Assay type: functional
# Set-up: scale not given: in the data most compounds retested in dose-response had high values
# condition.set: 5 µM
Hit rate of the full screen: of about 48,000 compounds, about 13,000 (27%) showed an effect of 50% or more. The list shows a part of the results.
Answer format: numeric, % implied, no suffix.

Some molecules with recorded Percent Effect:
Lab entry: Wolbachia pipientis assay, molecule Cc1cc(CNS(C)(=O)=O)ccc1N(C)C , Percent Effect = 110.2

Lab entry: Wolbachia pipientis assay, molecule Cc1cnn(-c2ccc(S(=O)(=O)N(C)CC(F)F)cc2F)c1 , Percent Effect = 2.178

Lab entry: Wolbachia pipientis assay, molecule CN(c1ncc(S(N)(=O)=O)s1)C1CCC1 , Percent Effect = 11.92

Lab entry: Wolbachia pipientis assay, molecule CN(c1ncnc2sccc12)C1CCCN(c2cccnn2)C1 (stereo not drawn) , Percent Effect = 17

Lab entry: Wolbachia pipientis assay, molecule CC(=O)N1CCCC(Cc2nccn2C)C1 (stereo not drawn) , Percent Effect = 104.6

Lab entry: Wolbachia pipientis assay, molecule Cn1cc(-c2cnc(-c3ccnn3C)nc2)cc1C(=O)N1CCCC1 , Percent Effect = 85.82

Lab entry: Wolbachia pipientis assay, molecule COc1ccc(C)cc1C(C)NC(=O)NCCCn1cncn1 (stereo not drawn) , Percent Effect = 6.959

Lab entry: Wolbachia pipientis assay, molecule O=C(C1CC(=O)N(c2n[nH]c3cc(Br)ccc23)C1)N1CCSCC1 (stereo not drawn) , Percent Effect = 118.9

Lab entry: Wolbachia pipientis assay, molecule O=C(CC1CCCO1)Nc1cccc(N2CCN(CC3CC3)CC2)c1 (stereo not drawn) , Percent Effect = -9.056

Lab entry: Wolbachia pipientis assay, molecule Cc1cnc(N2CCc3c(CNc4ccnc(C)n4)cncc3C2)nc1.Cl , Percent Effect = 94.65

Next:
Lab entry: Wolbachia pipientis assay, molecule CN(c1ncnc2ccccc12)C1CCCN(c2cccnn2)C1 (stereo not drawn) , Percent Effect = 80.98

Lab entry: Wolbachia pipientis assay, molecule CN(Cc1ccc(C#N)cc1)Cn1nccc1-c1cccnc1 , Percent Effect = 11.16

Lab entry: Wolbachia pipientis assay, molecule Cc1nc(CN(C)CC2CCCN2c2cccnn2)nc2ccccc12 (stereo not drawn) , Percent Effect = 6.947

Lab entry: Wolbachia pipientis assay, molecule COCCS(=O)(=O)NCC(C)c1cccc(C)c1 (stereo not drawn) , Percent Effect = -6.365

Lab entry: Wolbachia pipientis assay, molecule CC1CC2(CCN(C(=O)c3csnn3)CC2)c2ccccc21 (stereo not drawn) , Percent Effect = 10.92

Lab entry: Wolbachia pipientis assay, molecule Cn1nccc1-c1nc2c(cc1C(=O)O)CCN(CC1CC1)CC2 , Percent Effect = -6.641

---

Entries and their measured Percent Effect follow.
# Test system: Wolbachia pipientis
# test: Anti-Wolbachia Cell-Based Screen
# Assay type: functional
# Set-up: scale not given: in the data most compounds retested in dose-response had high values
# condition.set: 5 µM
The whole screen tested about 48,000 compounds, of which about 13,000 (27%) showed an effect of 50% or more. This is one part of the list.
Answer format: numeric, % implied, no suffix.

Some compounds with recorded Percent Effect:
Lab entry: Wolbachia pipientis assay, compound COCCN(C)C(=O)c1cc2c(s1)CCN2C(=O)C1CC1 , Percent Effect = 113.8

Lab entry: Wolbachia pipientis assay, compound CCCNC(=O)CCNC(=O)c1ccccc1N1CCOCC1 , Percent Effect = 6.654

Lab entry: Wolbachia pipientis assay, compound O=C(NC1CC1)c1cc2c(s1)CCN2C(=O)C1CC1 , Percent Effect = 91.55

Lab entry: Wolbachia pipientis assay, compound CC(C)n1nc(CN2CCCC2=O)c2c1CN(C(=O)c1ccno1)C2 , Percent Effect = 92.04

Lab entry: Wolbachia pipientis assay, compound CC(NS(=O)(=O)N(C)C(C)C)C(=O)N(C)C (configuration not stated) , Percent Effect = -8.822

Lab entry: Wolbachia pipientis assay, compound CC(C)C(=O)NCC(=O)N(C)C1CCCN(C2Cc3ccccc3C2)C1 (configuration not stated) , Percent Effect = -0.79

Lab entry: Wolbachia pipientis assay, compound CCCNC(=O)c1cc2c(s1)CCN2C(=O)c1ccccc1 , Percent Effect = 88.89

Lab entry: Wolbachia pipientis assay, compound Cc1ccc(CNCc2nnc3n2CC(C(F)(F)F)CC3)cc1 (configuration not stated) , Percent Effect = -7.096

Lab entry: Wolbachia pipientis assay, compound CCN1CCN(C(=O)CCC2CCN(C(C)CSC)CC2)CC1 (configuration not stated) , Percent Effect = 2.757

Lab entry: Wolbachia pipientis assay, compound COCc1nn(CC2CC2)c2c1CN(C(=O)c1ccno1)CC2 , Percent Effect = 1.769

Alright, here's another compound for you.
Lab entry: Wolbachia pipientis assay, compound CN(C)C1(C(=O)NC2CCC(Oc3ccccc3C#N)CC2)CCC1 (configuration not stated) , Percent Effect = -18.62
